- System: Neoplastic cell line
- assay_overview: Compound was evaluated for cytotoxic activity against KB cells.
- Format: functional, cell-based
- protocol_conditions: Homo sapiens
reported_endpoint: IC50

For Nc1ncnc2c1c(Br)cn2COC(CO)CO , what is its reported IC50?
> 100 µM

* * *

- System: L1210
- assay_overview: In vitro inhibition of L1210 cell growth to half of the control rate
- Assay type: functional, cell-based
- protocol_conditions: Mus musculus
reported_endpoint: log10 of IC50 (log10 of the value in µM)
Response schema: value (number) is log10 of IC50 in units of µM.

The examples below pair each entry with its known result.
>>> reported_value("OCC(CO)OCn1cc(I)c2c(NO)ncnc21")
1.59
>>> reported_value("OCC(CO)OCn1cc(Br)c2c(NO)ncnc21")
0.57
>>> reported_value("Nc1ncnc2c1c(Br)cn2[C@@H]1O[C@H](CO)[C@@H](O)[C@H]1O")
0.60
>>> reported_value("Nc1ncnc2c1c(Br)cn2COC(CO)CO")
-0.15
>>> reported_value("Nc1ncnc2c1c(I)cn2COC(CO)CO")
0.45

Hello, I would appreciate it if you could give log10 of IC50 for each entry below.
1. OC[C@H]1O[C@@H](n2cc(Br)c3c(NO)ncnc32)[C@H](O)[C@@H]1O
2. Nc1ncnc2c1c(Cl)cn2COC(CO)CO
3. OCC(CO)OCn1cc(Cl)c2c(NO)ncnc21

1: 1.40; 2: 0.36; 3: 1.88

* * *

- assay_overview: Compound was evaluated for percent mortality of mice inoculated with murine cytomegalovirus at a concentration of 1.9 mg/kg; drug toxicity control
- Assay type: organism-based
- Parameters: dose 1.9 mg/kg
- protocol_conditions: mouse, in vivo
reported_endpoint: Mortality (%)
One number for each entry, in %.

For Nc1ncnc2c1c(Br)cn2COC(CO)CO , what is its reported Mortality?
0

* * *

- assay_overview: Inhibition of herpes simplex virus (HSV-2) in human foreskin fibroblasts cell lines was determined by plaque assay
- protocol_conditions: Fibroblast
reported_endpoint: IC50 (nM)
Answers are plain numbers, in nM.

For Nc1ncnc2c1c(Br)cn2COC(CO)CO , what is its reported IC50?
300

* * *

- assay_overview: Compound was evaluated for percent mortality of mice inoculated with murine cytomegalovirus at a concentration of 16.7 mg/kg; drug toxicity control
- Assay type: organism-based
- Design: dose 16.7 mg/kg
- protocol_conditions: mouse, in vivo
reported_endpoint: Mortality (%)
Answers are plain numbers, in %.

For Nc1ncnc2c1c(Br)cn2COC(CO)CO , what is its reported Mortality?
7

FYI, the data here is from ChEMBL document CHEMBL1124846.
